# Test system: Neutrophils purified from human peripheral blood
# methodDescription: Human Neutrophil Transwell Migration Assay
# Format: cell-based
# settings: conc 0.001 μg/mL; 37° C., 45 minutes; % of the maximum migration possible
# Protocol: Neutrophils were purified from human peripheral blood utilizing PolymorphPrep. Red blood cells were lysed with a lysis buffer and the cells were washed, counted and resuspended in assay buffer. […] The plates were incubated at 37° C. for 45 minutes to allow for migration. After this time, migration was confirmed visually and then an aliquot (⅙^th of total cells) from each well was taken for ATP detection via luminescence with ATPlite (PerkinElmer) to quantify the number of migrated cells. […]
Reported % Neutrophil Migration values for a set of molecules
Param answer (str): number followed by unit.

Reference set (4 entries):
[[record]]
molecule = "CC[C@H](C)C[C@H](C)CCCCCCCCC(=O)N[C@H]1C[C@@H](O)[C@@H](NCCN)NC(=O)[C@@H]2[C@@H](O)CCN2C(=O)[C@H]([C@H](O)CCNC(=O)[C@H](CO)NC(=O)[C@H](CC(C)C)NC(=O)[C@H](CCSC)NC=O)NC(=O)[C@H]([C@H](O)[C@@H](O)c2ccc(O)cc2)NC(=O)[C@@H]2C[C@@H](O)CN2C(=O)[C@H]([C@@H](C)O)NC1=O"
testedtarget = "Neutrophils purified from human peripheral blood"
observed = "1.4%"

[[record]]
molecule = "CC[C@H](C)C[C@H](C)CCCCCCCCC(=O)N[C@H]1C[C@@H](O)[C@@H](NCCN)NC(=O)[C@@H]2[C@@H](O)CCN2C(=O)[C@H]([C@H](O)CCNC(=O)[C@@H](N)CCCCNC(=O)[C@H](Cc2ccccc2)NC(=O)[C@H](CC(C)C)NC(=O)[C@H](CCSC)NC=O)NC(=O)[C@H]([C@H](O)[C@@H](O)c2ccc(O)cc2)NC(=O)[C@@H]2C[C@@H](O)CN2C(=O)[C@H]([C@@H](C)O)NC1=O"
testedtarget = "Neutrophils purified from human peripheral blood"
observed = "9.6%"

[[record]]
molecule = "CC[C@H](C)C[C@H](C)CCCCCCCCC(=O)N[C@H]1C[C@@H](O)[C@@H](NCCN)NC(=O)[C@@H]2[C@@H](O)CCN2C(=O)[C@H]([C@H](O)CCNC(=O)CCNC(=O)[C@H](Cc2ccccc2)NC(=O)[C@H](CC(C)C)NC(=O)[C@H](CCSC)NC=O)NC(=O)[C@H]([C@H](O)[C@@H](O)c2ccc(O)cc2)NC(=O)[C@@H]2C[C@@H](O)CN2C(=O)[C@H]([C@@H](C)O)NC1=O"
testedtarget = "Neutrophils purified from human peripheral blood"
observed = "1.5%"

[[record]]
molecule = "CC[C@H](C)C[C@H](C)CCCCCCCCC(=O)N[C@H]1C[C@@H](O)[C@@H](NCCNC(=O)C(Cc2ccccc2)NC(=O)C(CC(C)C)NC(=O)C(CCSC)NC(=O)Nc2ccc(Cl)cc2)NC(=O)[C@@H]2[C@@H](O)CCN2C(=O)[C@H]([C@H](O)CCN)NC(=O)[C@H]([C@H](O)[C@@H](O)c2ccc(O)cc2)NC(=O)[C@@H]2C[C@@H](O)CN2C(=O)[C@H]([C@@H](C)O)NC1=O (single isomer, unassigned) [Compound 13b]"
testedtarget = "Neutrophils purified from human peripheral blood"
observed = "6.2%"


Ask: Look up % Neutrophil Migration of `CC[C@H](C)C[C@H](C)CCCCCCCCC(=O)N[C@H]1C[C@@H](O)[C@@H](NCCNC(=O)[C@H](Cc2ccccc2)NC(=O)[C@H](CC(C)C)NC(=O)[C@H](CCSC)NC=O)NC(=O)[C@@H]2[C@@H](O)CCN2C(=O)[C@H]([C@H](O)CCN)NC(=O)[C@H]([C@H](O)[C@@H](O)c2ccc(O)cc2)NC(=O)[C@@H]2C[C@@H](O)CN2C(=O)[C@H]([C@@H](C)O)NC1=O` and report it.
Reply: −5.3%
